TGT: T1, p58C266-464 (DNA primase regulatory subunit C-terminal domain) (human, UniProt P49643 266-464)
T1 sequence: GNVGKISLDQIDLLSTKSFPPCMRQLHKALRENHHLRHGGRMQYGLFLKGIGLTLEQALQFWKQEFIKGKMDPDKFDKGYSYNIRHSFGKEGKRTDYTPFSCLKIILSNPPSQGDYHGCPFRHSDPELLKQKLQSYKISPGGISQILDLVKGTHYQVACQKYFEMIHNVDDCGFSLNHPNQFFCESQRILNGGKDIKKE
EXPERIMENT_SUMMARY: fluorescence anisotropy; 20 mM MES pH 6.5, 50 mM NaCl, 2 mM DTT (plus 0.05% Tween for FI), 50 nM substrate, 25 C; 15 min incubation at room temperature
SETTINGS: protein: recombinant; tags: 6xHis tag cleaved with H3C protease; label: 5'-6FAM on DNA template (S4 Dataset says FITC); 12 bp RNA-DNA hybrid; template 5' overhang 4 nt and 3' overhang 6 nt
MEASURED_PROPERTY: Kd (µM)
Kindly answer with a numeric value in µM, unit omitted.

Record request: Kd value, item FA substrate: 12 nt RNA-primed 22 nt DNA template (DNA:RNA, 5'-triphosphate on RNA primer (RNA printed with T as S5; written here with U)) RNA: GGACCUCCAGGA DNA: AAACTCCTGGAGGTCCAACATA
2.1
